target: rat α6/α3β4 nAChR (Rattus norvegicus, UniProt P04757+P12392+P43143); assay: cell-based
Sequence (P04757 whole entry, looked up): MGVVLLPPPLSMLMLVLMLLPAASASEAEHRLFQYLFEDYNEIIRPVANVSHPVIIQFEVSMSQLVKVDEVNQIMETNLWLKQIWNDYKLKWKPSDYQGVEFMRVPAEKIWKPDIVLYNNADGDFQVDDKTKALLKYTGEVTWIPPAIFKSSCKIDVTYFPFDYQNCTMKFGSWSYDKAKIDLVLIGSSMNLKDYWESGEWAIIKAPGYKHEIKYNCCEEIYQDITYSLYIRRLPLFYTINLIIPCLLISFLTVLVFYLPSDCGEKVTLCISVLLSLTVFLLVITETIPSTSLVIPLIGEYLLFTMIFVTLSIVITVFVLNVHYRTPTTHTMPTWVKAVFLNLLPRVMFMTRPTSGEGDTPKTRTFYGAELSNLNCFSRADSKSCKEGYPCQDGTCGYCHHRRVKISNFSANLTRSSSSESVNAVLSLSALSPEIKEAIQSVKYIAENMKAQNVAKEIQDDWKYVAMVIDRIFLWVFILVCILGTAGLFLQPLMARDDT
Sequence (P12392 whole entry, looked up): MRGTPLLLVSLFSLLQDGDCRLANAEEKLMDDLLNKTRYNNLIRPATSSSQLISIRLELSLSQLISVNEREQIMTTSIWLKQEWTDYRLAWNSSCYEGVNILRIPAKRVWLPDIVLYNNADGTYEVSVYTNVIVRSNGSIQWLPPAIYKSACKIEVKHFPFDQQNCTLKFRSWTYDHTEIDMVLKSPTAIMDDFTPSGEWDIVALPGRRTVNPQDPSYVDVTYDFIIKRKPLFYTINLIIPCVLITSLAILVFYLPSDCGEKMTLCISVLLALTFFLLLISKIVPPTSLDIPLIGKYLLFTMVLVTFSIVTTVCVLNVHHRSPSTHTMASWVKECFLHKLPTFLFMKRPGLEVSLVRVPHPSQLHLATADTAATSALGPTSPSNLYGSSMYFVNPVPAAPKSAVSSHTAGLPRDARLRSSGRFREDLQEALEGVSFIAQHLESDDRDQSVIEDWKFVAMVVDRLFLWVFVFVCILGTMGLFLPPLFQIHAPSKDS
Sequence (P43143 whole entry, looked up): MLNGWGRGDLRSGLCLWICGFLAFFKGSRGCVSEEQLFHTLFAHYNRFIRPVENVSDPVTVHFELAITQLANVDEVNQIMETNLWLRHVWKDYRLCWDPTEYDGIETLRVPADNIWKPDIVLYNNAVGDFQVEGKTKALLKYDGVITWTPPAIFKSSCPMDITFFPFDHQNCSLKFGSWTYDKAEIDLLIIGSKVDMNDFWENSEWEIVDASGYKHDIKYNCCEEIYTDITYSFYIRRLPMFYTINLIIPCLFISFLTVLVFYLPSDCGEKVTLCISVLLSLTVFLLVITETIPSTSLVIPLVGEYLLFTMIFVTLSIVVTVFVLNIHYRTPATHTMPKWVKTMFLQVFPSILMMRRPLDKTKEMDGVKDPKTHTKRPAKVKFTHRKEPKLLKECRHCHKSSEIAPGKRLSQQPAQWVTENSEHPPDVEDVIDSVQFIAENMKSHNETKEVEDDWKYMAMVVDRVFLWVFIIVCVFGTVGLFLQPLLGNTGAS
Peptide text beside a SMILES is read from it.
Measured attribute: IC50 ratio of α6/α3β4 vs. α3β4 (Discrimination)
One number for each entry.

In plain terms, CC[C@H](C)[C@@H]1NC(=O)[C@H](CC(=O)O)NC(=O)[C@@H]2CCCN2C(=O)[C@H](CO)NC(=O)[C@H](CCSC)NC(=O)[C@H](C)NC(=O)[C@H](CO)NC(=O)[C@@H]2CSSC[C@H](NC(=O)CN)C(=O)N[C@@H](CSSC[C@@H](C(N)=O)NC1=O)C(=O)N[C@@H](CO)C(=O)N[C@@H](Cc1c[nH]cn1)C(=O)N1CCC[C@H]1C(=O)N[C@@H](C(C)C)C(=O)N2 [TxID[14D]] (HELM PEPTIDE1{G.C.C.S.H.P.V.C.S.A.M.S.P.D.I.C.[am]}$PEPTIDE1,PEPTIDE1,2:R3-8:R3|PEPTIDE1,PEPTIDE1,3:R3-16:R3$$$V2.0) has a documented IC50 ratio of α6/α3β4 vs. α3β4 (Discrimination) of 44.7

Pending compound:
In plain terms, CSCC[C@@H]1NC(=O)[C@H](C)NC(=O)[C@H](CO)NC(=O)[C@@H]2CSSC[C@H](NC(=O)CN)C(=O)N[C@@H](CSSC[C@@H](C(N)=O)NC(=O)[C@H](CC(=O)O)NC(=O)[C@@H]3CCCN3C(=O)[C@H](CO)NC1=O)C(=O)N[C@@H](CO)C(=O)N[C@@H](Cc1c[nH]cn1)C(=O)N1CCC[C@H]1C(=O)N[C@@H](C(C)C)C(=O)N2 [TxID[I14D]] (HELM PEPTIDE1{G.C.C.S.H.P.V.C.S.A.M.S.P.D.C.[am]}$PEPTIDE1,PEPTIDE1,2:R3-8:R3|PEPTIDE1,PEPTIDE1,3:R3-15:R3$$$V2.0) has a documented IC50 ratio of α6/α3β4 vs. α3β4 (Discrimination) of 4.2

---

molecular target: rat α6/α3β4 nAChR (Rattus norvegicus, UniProt P04757+P12392+P43143); assay: cell-based
Peptide text beside a SMILES is read from it.
Measured attribute: IC50 ratio of α6/α3β4 vs. α3β4 (Discrimination)
Numbers only.

In plain terms, CSCC[C@@H]1NC(=O)[C@H](C)NC(=O)[C@H](CO)NC(=O)[C@@H]2CSSC[C@H](NC(=O)CN)C(=O)N[C@@H](CSSC[C@@H](C(N)=O)NC(=O)[C@H](C)NC(=O)[C@@H]3CCCN3C(=O)[C@H](CO)NC1=O)C(=O)N[C@@H](CO)C(=O)N[C@@H](Cc1c[nH]cn1)C(=O)N1CCC[C@H]1C(=O)N[C@@H](C(C)C)C(=O)N2 [TxID[I14A]] (HELM PEPTIDE1{G.C.C.S.H.P.V.C.S.A.M.S.P.A.C.[am]}$PEPTIDE1,PEPTIDE1,2:R3-8:R3|PEPTIDE1,PEPTIDE1,3:R3-15:R3$$$V2.0) has a documented IC50 ratio of α6/α3β4 vs. α3β4 (Discrimination) of 2.8

---

target: rat α6/α3β4 nAChR (Rattus norvegicus, UniProt P04757+P12392+P43143); assay: cell-based
Peptide text beside a SMILES is read from it.
Measured attribute: α6/α3β4 IC50 ratio
Numbers only.

The following compounds have reported results that may help.
In plain terms, CC[C@H](C)[C@@H]1NC(=O)[C@@H]2CCCN2C(=O)[C@H](CO)NC(=O)[C@H](Cc2c[nH]cn2)NC(=O)[C@H](C)NC(=O)[C@H](CO)NC(=O)[C@@H]2CSSC[C@H](NC(=O)CN)C(=O)N[C@@H](CSSC[C@@H](C(N)=O)NC1=O)C(=O)N[C@@H](CO)C(=O)N[C@@H](Cc1c[nH]cn1)C(=O)N1CCC[C@H]1C(=O)N[C@@H](C(C)C)C(=O)N2 [TxID[M11H]] (HELM PEPTIDE1{G.C.C.S.H.P.V.C.S.A.H.S.P.I.C.[am]}$PEPTIDE1,PEPTIDE1,2:R3-8:R3|PEPTIDE1,PEPTIDE1,3:R3-15:R3$$$V2.0) has a documented α6/α3β4 IC50 ratio of 103

In plain terms, CSCC[C@@H]1NC(=O)[C@H](C)NC(=O)[C@H](CO)NC(=O)[C@@H]2CSSC[C@H](NC(=O)CN)C(=O)N[C@@H](CSSC[C@@H](C(N)=O)NC(=O)[C@H](CC(C)C)NC(=O)[C@@H]3CCCN3C(=O)[C@H](CO)NC1=O)C(=O)N[C@@H](CO)C(=O)N[C@@H](Cc1c[nH]cn1)C(=O)N1CCC[C@H]1C(=O)N[C@@H](C(C)C)C(=O)N2 [TxID[I14L]] (HELM PEPTIDE1{G.C.C.S.H.P.V.C.S.A.M.S.P.L.C.[am]}$PEPTIDE1,PEPTIDE1,2:R3-8:R3|PEPTIDE1,PEPTIDE1,3:R3-15:R3$$$V2.0) has a documented α6/α3β4 IC50 ratio of 0.9

Pending compound:
In plain terms, CC[C@H](C)[C@@H]1NC(=O)[C@H](CC(=O)O)NC(=O)[C@@H]2CCCN2C(=O)[C@H](CO)NC(=O)[C@H](CCSC)NC(=O)[C@H](C)NC(=O)[C@H](CO)NC(=O)[C@@H]2CSSC[C@H](NC(=O)CN)C(=O)N[C@@H](CSSC[C@@H](C(N)=O)NC1=O)C(=O)N[C@@H](CO)C(=O)N[C@@H](Cc1c[nH]cn1)C(=O)N1CCC[C@H]1C(=O)N[C@@H](C(C)C)C(=O)N2 [TxID[14D]] (HELM PEPTIDE1{G.C.C.S.H.P.V.C.S.A.M.S.P.D.I.C.[am]}$PEPTIDE1,PEPTIDE1,2:R3-8:R3|PEPTIDE1,PEPTIDE1,3:R3-16:R3$$$V2.0) has a documented α6/α3β4 IC50 ratio of 66.6

---

biological target: rat α6/α3β4 nAChR (Rattus norvegicus, UniProt P04757+P12392+P43143); test: cell-based; settings: α6/α3β4 IC50
pIC50: −log10 of the molar value. Peptide text beside a SMILES is read from it.
Measured attribute: pIC50

In plain terms, CC[C@H](C)[C@@H]1NC(=O)[C@@H]2CCCN2C(=O)[C@H](CO)NC(=O)[C@H](CCSC)NC(=O)[C@H](C)NC(=O)[C@H](Cc2cnc[nH]2)NC(=O)[C@@H]2CSSC[C@H](NC(=O)CN)C(=O)N[C@@H](CSSC[C@@H](C(N)=O)NC1=O)C(=O)N[C@@H](CO)C(=O)N[C@@H](Cc1cnc[nH]1)C(=O)N1CCC[C@H]1C(=O)N[C@@H](C(C)C)C(=O)N2 [TxID[S9H]] (HELM PEPTIDE1{G.C.C.S.H.P.V.C.H.A.M.S.P.I.C.[am]}$PEPTIDE1,PEPTIDE1,2:R3-8:R3|PEPTIDE1,PEPTIDE1,3:R3-15:R3$$$V2.0) has a documented pIC50 of 7.73

In plain terms, CC[C@H](C)[C@@H]1NC(=O)[C@H](CC(=O)O)NC(=O)[C@@H]2CCCN2C(=O)[C@H](CO)NC(=O)[C@H](CCSC)NC(=O)[C@H](C)NC(=O)[C@H](CO)NC(=O)[C@@H]2CSSC[C@H](NC(=O)CN)C(=O)N[C@@H](CSSC[C@@H](C(N)=O)NC1=O)C(=O)N[C@@H](CO)C(=O)N[C@@H](Cc1c[nH]cn1)C(=O)N1CCC[C@H]1C(=O)N[C@@H](C(C)C)C(=O)N2 [TxID[14D]] (HELM PEPTIDE1{G.C.C.S.H.P.V.C.S.A.M.S.P.D.I.C.[am]}$PEPTIDE1,PEPTIDE1,2:R3-8:R3|PEPTIDE1,PEPTIDE1,3:R3-16:R3$$$V2.0) has a documented pIC50 of 5.00 to 6.00

Continuing:
In plain terms, CC[C@H](C)[C@@H]1NC(=O)[C@@H]2CCCN2C(=O)[C@H](CO)NC(=O)[C@H](Cc2c[nH]cn2)NC(=O)[C@H](C)NC(=O)[C@H](CO)NC(=O)[C@@H]2CSSC[C@H](NC(=O)CN)C(=O)N[C@@H](CSSC[C@@H](C(N)=O)NC1=O)C(=O)N[C@@H](CO)C(=O)N[C@@H](Cc1c[nH]cn1)C(=O)N1CCC[C@H]1C(=O)N[C@@H](C(C)C)C(=O)N2 [TxID[M11H]] (HELM PEPTIDE1{G.C.C.S.H.P.V.C.S.A.H.S.P.I.C.[am]}$PEPTIDE1,PEPTIDE1,2:R3-8:R3|PEPTIDE1,PEPTIDE1,3:R3-15:R3$$$V2.0) has a documented pIC50 of 5.00 to 6.00
